For each record, write down the corresponding Inh (PKA).
# System: PRKACA-PRKAR2A interaction (SmBiT-PRKACA / LgBiT-PRKAR2A), protein kinase A
# Design: NanoLuc complementation counter-screen in cell extract, PRKACA with PRKAR2A, loss of luminescence, detects NanoLuc interference
# Conditions: counter-screen for NanoLuc interference; 0.5 h, 20 µM; inhibitor
Where a name gives a salt, the structure may show the parent alone.
The response must be a number in % with no trailing unit.

With PRKACA-PRKAR2A interaction (SmBiT-PRKACA / LgBiT-PRKAR2A), protein kinase A as the test system, "Cc1cc(C)nc(NC(=S)N2CCN(Cc3ccc(C(F)(F)F)cc3)CC2)c1" showed Inh (PKA) of 4.726

With PRKACA-PRKAR2A interaction (SmBiT-PRKACA / LgBiT-PRKAR2A), protein kinase A as the test system, "Cc1cccc(-c2[nH]c(C(C)(C)C)nc2-c2ccc3nccnc3c2)n1" showed Inh (PKA) of 4.915

With PRKACA-PRKAR2A interaction (SmBiT-PRKACA / LgBiT-PRKAR2A), protein kinase A as the test system, CC1CNc2c(cccc2S(=O)(=O)N[C@@H](CCCNC(=N)N)C(=O)N2CC[C@@H](C)C[C@@H]2C(=O)O)C1 (stereo partly shown) showed Inh (PKA) of 1.414

With PRKACA-PRKAR2A interaction (SmBiT-PRKACA / LgBiT-PRKAR2A), protein kinase A as the test system, COCCc1ccc(OCC(O)CNC(C)C)cc1 (stereo not shown) [UM0142210:01, Metoprolol Tartrate] showed Inh (PKA) of 1.896

With PRKACA-PRKAR2A interaction (SmBiT-PRKACA / LgBiT-PRKAR2A), protein kinase A as the test system, "COc1cc2ncnc(Sc3nnc(C)s3)c2cc1OC" showed Inh (PKA) of -0.2342

With PRKACA-PRKAR2A interaction (SmBiT-PRKACA / LgBiT-PRKAR2A), protein kinase A as the test system, "COC(=O)N(C)c1c(N)nc(-c2nn(Cc3ccccc3F)c3ncccc23)nc1N" showed Inh (PKA) of 2.487

With PRKACA-PRKAR2A interaction (SmBiT-PRKACA / LgBiT-PRKAR2A), protein kinase A as the test system, "N=C1NC(=O)/C(=C/c2ccc(O)cc2)S1" showed Inh (PKA) of 13.24

With PRKACA-PRKAR2A interaction (SmBiT-PRKACA / LgBiT-PRKAR2A), protein kinase A as the test system, "CCC[C@H](NC(=O)[C@@H]1[C@H]2CCC[C@H]2CN1C(=O)[C@@H](NC(=O)[C@@H](NC(=O)c1cnccn1)C1CCCCC1)C(C)(C)C)C(=O)C(=O)NC1CC1" showed Inh (PKA) of 3.048

With PRKACA-PRKAR2A interaction (SmBiT-PRKACA / LgBiT-PRKAR2A), protein kinase A as the test system, "Cc1ccc([N+](=O)[O-])cc1S(=O)(=O)N(C)/N=C/c1cnc2ccc(Br)cn12" showed Inh (PKA) of 46.51

With PRKACA-PRKAR2A interaction (SmBiT-PRKACA / LgBiT-PRKAR2A), protein kinase A as the test system, "NS(=O)(=O)NCCNc1nonc1/C(=N/O)Nc1ccc(F)c(Br)c1" showed Inh (PKA) of 8.041

With PRKACA-PRKAR2A interaction (SmBiT-PRKACA / LgBiT-PRKAR2A), protein kinase A as the test system, "CC(C)(F)C[C@H](N[C@@H](c1ccc(-c2ccc(S(C)(=O)=O)cc2)cc1)C(F)(F)F)C(=O)NC1(C#N)CC1" showed Inh (PKA) of 3.507

With PRKACA-PRKAR2A interaction (SmBiT-PRKACA / LgBiT-PRKAR2A), protein kinase A as the test system, "Nc1ncnc2c1c(-c1cnc3[nH]ccc3c1)nn2C1CCCC1" showed Inh (PKA) of 28.88

With PRKACA-PRKAR2A interaction (SmBiT-PRKACA / LgBiT-PRKAR2A), protein kinase A as the test system, "NC(=O)N1CCC(CC(=O)N2CCC([C@H]3c4ncc(Br)cc4CCc4cc(Cl)cc(Br)c43)CC2)CC1" showed Inh (PKA) of 11.04

With PRKACA-PRKAR2A interaction (SmBiT-PRKACA / LgBiT-PRKAR2A), protein kinase A as the test system, "C/C(=N\NC(=S)N1CCC1)c1ccccn1" showed Inh (PKA) of 3.72

With PRKACA-PRKAR2A interaction (SmBiT-PRKACA / LgBiT-PRKAR2A), protein kinase A as the test system, "Cc1nc(Nc2n[nH]c3c2CN(C(=O)N[C@H](CN(C)C)c2ccccc2)C3(C)C)c2sccc2n1" showed Inh (PKA) of 66.65

With PRKACA-PRKAR2A interaction (SmBiT-PRKACA / LgBiT-PRKAR2A), protein kinase A as the test system, "CC1(C)O[C@H]2CC(=O)OC[C@]23[C@H]2CC[C@@]4(C)[C@H](c5ccoc5)OC(=O)[C@H]5O[C@]54[C@]2(C)C(=O)C[C@@H]13" showed Inh (PKA) of 0.3774

With PRKACA-PRKAR2A interaction (SmBiT-PRKACA / LgBiT-PRKAR2A), protein kinase A as the test system, "CCCOc1ccccc1-c1nc2[nH]nnc2c(=O)[nH]1" showed Inh (PKA) of 3.478

With PRKACA-PRKAR2A interaction (SmBiT-PRKACA / LgBiT-PRKAR2A), protein kinase A as the test system, "Cc1ccc(C(=O)Nc2cccc(C(F)(F)F)c2)cc1Nc1nc(-c2cccnc2)nc2c1cnn2C" showed Inh (PKA) of 37.9

With PRKACA-PRKAR2A interaction (SmBiT-PRKACA / LgBiT-PRKAR2A), protein kinase A as the test system, C#CCN[C@@H]1CCc2ccccc21 [UM0141810:01, Rasagiline Mesylate] showed Inh (PKA) of 2.611

With PRKACA-PRKAR2A interaction (SmBiT-PRKACA / LgBiT-PRKAR2A), protein kinase A as the test system, CC(C)(C)C(O)/C=C/c1ccc2c(c1)OCO2 (stereo not shown) showed Inh (PKA) of 12.44

With PRKACA-PRKAR2A interaction (SmBiT-PRKACA / LgBiT-PRKAR2A), protein kinase A as the test system, "Oc1cc(Cl)ccc1Oc1ccc(Cl)cc1Cl" showed Inh (PKA) of 50.68

With PRKACA-PRKAR2A interaction (SmBiT-PRKACA / LgBiT-PRKAR2A), protein kinase A as the test system, COc1ccc2c(c1)[nH]c1c(C)nccc12 [UM0118303:03, Harmine hydrochloride] showed Inh (PKA) of 2.69

With PRKACA-PRKAR2A interaction (SmBiT-PRKACA / LgBiT-PRKAR2A), protein kinase A as the test system, "C[C@H]1[C@H](C)CC[C@]2(C(=O)O)CC[C@]3(C)C(=CC[C@@H]4[C@@]5(C)C[C@@H](O)[C@H](O)[C@@](C)(CO)[C@@H]5CC[C@]43C)[C@H]12" showed Inh (PKA) of 9.304

With PRKACA-PRKAR2A interaction (SmBiT-PRKACA / LgBiT-PRKAR2A), protein kinase A as the test system, "CC1=C(CSC(=S)N2CCCCC2)C(=O)c2ccccc2C1=O" showed Inh (PKA) of 18.26

With PRKACA-PRKAR2A interaction (SmBiT-PRKACA / LgBiT-PRKAR2A), protein kinase A as the test system, CC(C(=O)O)c1cccc(C(=O)c2ccccc2)c1 (stereo not shown) showed Inh (PKA) of -0.4888

---

For each record, write down the corresponding Inh (PKA).
# System: PRKACA-PRKAR2A interaction (SmBiT-PRKACA / LgBiT-PRKAR2A), protein kinase A
# Set-up: NanoLuc complementation counter-screen in cell extract, PRKACA with PRKAR2A, loss of luminescence, detects NanoLuc interference
# Conditions: counter-screen for NanoLuc interference; 0.5 h, 20 µM; inhibitor
Where a name gives a salt, the structure may show the parent alone.
The response must be a number in % with no trailing unit.

Lab note: CS(=O)(=O)c1cccc(CNc2nc(Nc3ccc4c(c3)CCC(=O)N4)ncc2C(F)(F)F)c1 [UM0142290:01, PF-573228] gave Inh (PKA) of 25.03

Lab note: CC(=O)O/N=C1\C(=O)N(Cc2cc(Cl)ccc2Cl)c2ccc(Cl)cc21 [UM0141658:01, LDN 57444] gave Inh (PKA) of 84.34

Lab note: CC(C)(O)CC(=O)NCCn1ccc2ncnc(Nc3ccc(Oc4cccc(C(F)(F)F)c4)c(Cl)c3)c21 [UM0142073:01, TAK-285] gave Inh (PKA) of 28.39

Lab note: CNC[C@H](O)c1ccc(O)c(O)c1 [UM0142209:01, L-Adrenaline] gave Inh (PKA) of 7.349

Lab note: C#Cc1cccc(Nc2ncnc3cc(OC)c(OCCCCCCC(=O)NO)cc23)c1 [UM0141699:01, CUDC-101] gave Inh (PKA) of 11.72

Lab note: CC(C)C(=O)Nc1ccc([N+](=O)[O-])c(C(F)(F)F)c1 [UM0118278:03, Flutamide] gave Inh (PKA) of 16.36

Lab note: COc1cc(OCc2cccc(-c3ccccc3)c2C)cc(OC)c1CN1CCCC[C@H]1C(=O)O [UM0142755:01, PD-1/PD-L1 inhibitor 1] gave Inh (PKA) of 7.667

Lab note: Cc1ccc(Nc2c(F)cccc2Cl)c(CC(=O)O)c1 [UM0142264:01, Lumiracoxib] gave Inh (PKA) of 7.46

Lab note: CN(C/C=C/C#CC(C)(C)C)Cc1cccc2ccccc12 [UM0133235:02, Terbinafine HCl] gave Inh (PKA) of 7.743

Lab note: C[C@]12CCC3=C4CCC(=O)C=C4CC[C@H]3[C@@H]1CC[C@@]2(O)CC#N [UM0142287:01, Dienogest] gave Inh (PKA) of -0.135

Lab note: CC1=C(CC(=O)O)c2cc(F)ccc2/C1=C\c1ccc([S+](C)[O-])cc1 (stereo not drawn) [UM0134349:02, Sulindac] gave Inh (PKA) of 3.185

Lab note: CC(=O)N[C@@H](CS)C(=O)O [UM0119535:03, Acetylcysteine] gave Inh (PKA) of 1.097

Lab note: CC(C)C[C@H](NC(=O)[C@@H](O)[C@H](N)Cc1ccccc1)C(=O)O [UM0141468:01, Bestatin] gave Inh (PKA) of 1.556

Lab note: COc1ccc2[nH]c([S+]([O-])Cc3ncc(C)c(OC)c3C)nc2c1 (stereo not drawn) [UM0048901:05, Omeprazole] gave Inh (PKA) of -0.07908

Lab note: NCCS(=O)(=O)O [UM0120232:03, Taurine] gave Inh (PKA) of -1.533

Lab note: CCN(CC)C(=O)/C(C#N)=C/c1cc(O)c(O)c([N+](=O)[O-])c1 [UM0141744:01, Entacapone] gave Inh (PKA) of 34.9

Lab note: C=C[C@H]1CN2CC[C@H]1C[C@H]2[C@H](O)c1ccnc2ccc(OC)cc12 [UM0142415:01, Quinine HCl Dihydrate] gave Inh (PKA) of 1.874

Lab note: N#CC(c1ccnc(NCCc2cccnc2)n1)c1nc2ccccc2s1 (stereo not drawn) [UM0142696:01, AS601245] gave Inh (PKA) of 54.87
